Attribution: patent US20170101466A1

molecular target: T1, soluble mouse BLyS (mouse, UniProt Q9WU72 127-309); assay: DELFIA competition, Eu-mBLyS binding to coated TACI
T1 construct: europium-labelled in DELFIA; also called mBLyS; mouse BAFF (BLyS)
pIC50: −log10 of the molar value.
EXPERIMENTAL_ENDPOINT: pIC50

Reference set, count: 5
BINDER	pIC50
8D12 IgG expressed in HEK293 cells (antibody, V domains shown, IgG from HEK293-FreeStyle cells; also called 8D12 (293)) VH: QVQLVQSGAEVKKPGASVKVSCKASGYTFTSYAMHWVRQAPGQRLEWMGWINAGNGNTKYSQKFQGRVTITRDTSASTAYMELSSLRSEDTAVYYCARAYYDILTGYSVYGMDVWGQGTTVTVSS VL: EIVLTQSPATLSLSPGERATLSCRANESVGNYLAWYQQKPGQAPRLLIYGASRRATGIPDRFSGSGSGTDFTLTISRLEPEDFAVYYCQQYGSSLLTFGGGTKVEIKR	< 8.70
8D12 IgG1 F243A/V264A double mutein expressed in Pichia pastoris (antibody, V domains shown, IgG1 F243A/V264A (EU) double mutein, alpha-2,6-sialylated, from glycoengineered Pichia pastoris; also called 8D12-DM; 8D12-DM (Pichia)) VH: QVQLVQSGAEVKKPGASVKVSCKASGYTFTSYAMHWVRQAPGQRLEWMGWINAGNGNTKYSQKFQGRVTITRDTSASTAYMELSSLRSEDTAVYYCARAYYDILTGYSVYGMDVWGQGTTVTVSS VL: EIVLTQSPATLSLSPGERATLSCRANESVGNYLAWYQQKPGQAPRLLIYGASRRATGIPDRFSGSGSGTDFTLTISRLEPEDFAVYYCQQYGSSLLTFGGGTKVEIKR	< 8.70
5B7 IgG1 F243A/V264A double mutein expressed in Pichia pastoris (antibody, V domains shown, IgG1 F243A/V264A (EU) double mutein, alpha-2,6-sialylated, from glycoengineered Pichia pastoris; also called 5B7-DM; 5B7-DM Pichia) VH: QVQLVQSGAEVKKPGASVKVSCKASGGTFSSYAISWVRQAPGQGLEWMGGIIPIFGTANYAQKFQGRVTITADKSTSTAYMELSSLRSEDTAVYYCARVDYDILTGYYMGYFDYWGQGTLVTVSS VL: DIVMTQSPATLSLSPGERATLSCRASQSVSSYLAWYQQKPGQAPRLLIYDASNRATGIPARFSGSGSGTDFTLTISSLEPEDFAVYYCQQRSNWPITFGQGTRLEIKR	> 12.52
6C10 IgG expressed in HEK293 cells (antibody, V domains shown, IgG from HEK293-FreeStyle cells; also called 6C10 (293)) VH: EVQLVQSGAEVKKPGASVKVSCKASGYTFTSYGISWVRQAPGQGLEWMGWISAYNGNTNYAQKLQGRVTMTTDTSTSTAYMELRSLRSDDTAVYYCARTYYDILTGYYYYYGMDVWGQGTTVTVSS VL: EIVLTQSPGTLSLSPGERAMLSCRASQSVGNYLAWYQQKPGQAPRLLIYDASNRATGIPARFSGSGSGTDFTLTINSLEPEDFAVYYCQQRSNWPLTFGGGTKVEIKR	9.17
5B7 IgG expressed in HEK293 cells (antibody, V domains shown, also called 5B7 (293); 5B7-HEK293) VH: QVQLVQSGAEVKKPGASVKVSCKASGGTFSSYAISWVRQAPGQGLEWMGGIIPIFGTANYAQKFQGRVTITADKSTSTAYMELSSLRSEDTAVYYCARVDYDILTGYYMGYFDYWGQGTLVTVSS VL: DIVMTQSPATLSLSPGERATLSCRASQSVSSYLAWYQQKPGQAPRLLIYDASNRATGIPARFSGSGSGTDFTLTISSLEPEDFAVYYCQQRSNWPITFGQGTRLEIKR	> 12.52

We next turn to a different binder, shown below.
Query string: Supply recorded pIC50 for 6C10 IgG1 F243A/V264A double mutein expressed in Pichia pastoris (antibody, V domains shown, IgG1 F243A/V264A (EU) double mutein, alpha-2,6-sialylated, from glycoengineered Pichia pastoris; also called 6C10-DM; 6C10-DM (Pichia)) VH: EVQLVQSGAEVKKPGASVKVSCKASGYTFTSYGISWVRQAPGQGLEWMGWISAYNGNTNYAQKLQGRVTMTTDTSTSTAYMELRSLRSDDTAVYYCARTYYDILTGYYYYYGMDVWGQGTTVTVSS VL: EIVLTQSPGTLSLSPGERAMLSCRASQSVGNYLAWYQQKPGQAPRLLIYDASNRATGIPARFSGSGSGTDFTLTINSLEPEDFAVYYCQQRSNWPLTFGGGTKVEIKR here.
Result string: 9.35
